study-system: human DP2 receptor (Homo sapiens)
Construct: expressed in transfected cells; membrane preparation
Sequence (Q9Y5Y4 whole entry): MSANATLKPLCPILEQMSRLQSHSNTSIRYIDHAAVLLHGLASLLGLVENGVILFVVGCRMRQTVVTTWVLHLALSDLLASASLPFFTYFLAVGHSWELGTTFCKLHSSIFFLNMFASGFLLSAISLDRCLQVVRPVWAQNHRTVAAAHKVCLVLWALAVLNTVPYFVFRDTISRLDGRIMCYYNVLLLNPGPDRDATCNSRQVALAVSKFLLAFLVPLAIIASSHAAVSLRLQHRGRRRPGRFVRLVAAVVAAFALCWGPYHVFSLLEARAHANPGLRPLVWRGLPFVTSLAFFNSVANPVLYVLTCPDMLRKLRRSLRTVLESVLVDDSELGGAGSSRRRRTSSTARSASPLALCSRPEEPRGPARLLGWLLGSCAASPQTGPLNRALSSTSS
assay-info: DP2/CRTH2 radioligand binding assay using [3H]PGD2
experimental-parameters: membranes of HEK293 cells expressing recombinant human DP2, 1 nM [3H]PGD2; read-out: hDP2
Protocol: The ability of a compound to bind to the human DP2 receptor is assessed via a radioligand binding assay using [^3H]PGD2. […] Scintillant is then added to the plates and the radioactivity retained on the filters is determined on a Packard TopCount (Perkin Elmer). Specific binding is determined as total radioactive binding minus non-specific binding in the presence of 10 μM PGD2. IC50s were determined using GraphPad prism analysis of drug titration curves.
pIC50: −log10 of the molar value.
recorded-endpoint: pIC50

> print(dat)
                                   compound  measured.value
1  CN([C@@H]1CCc2c(c3ncccc3n2CC(=O)O)C1)S(=O)(=O)c1ccc(F)cc1 (single isomer, unassigned)          > 7.00
2  CN([C@H]1CCc2c(c3ncccc3n2CC(=O)O)C1)S(=O)(=O)c1ccc(F)cc1 (single isomer, unassigned)          < 7.00
3  CN(C1CCc2c(c3nccnc3n2CC(=O)O)C1)S(=O)(=O)c1ccc(F)cc1 (centres unmarked)          < 7.00
4  CN(C1CCc2c(c3cccnc3n2CC(=O)O)C1)S(=O)(=O)c1ccc(F)cc1 (centres unmarked)          < 7.00

// switching to the query compound
*Q* Look up pIC50 for this compound: CN(C1CCc2c(c3ncccc3n2CC(=O)O)C1)S(=O)(=O)c1ccc(F)cc1 (racemic)
*A* > 7.00

Source: patent US20110301168A1
